Assay system: T1, membrane-bound full-length human HVEM on stable HVEM-transfected HEK293F cells (clone no. 128) (human, UniProt Q92956 39-283)
T1 construct: The same cDNA was also expressed on Sf9 insect cells; also called TNFRSF14; CD270
T1 sequence: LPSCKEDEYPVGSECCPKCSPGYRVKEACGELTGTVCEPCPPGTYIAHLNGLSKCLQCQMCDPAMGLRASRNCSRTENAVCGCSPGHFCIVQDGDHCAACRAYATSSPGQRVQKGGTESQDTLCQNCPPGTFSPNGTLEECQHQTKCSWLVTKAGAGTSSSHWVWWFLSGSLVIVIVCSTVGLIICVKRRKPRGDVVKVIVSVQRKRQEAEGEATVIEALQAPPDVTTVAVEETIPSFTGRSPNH
Assay protocol: FACS titration on HVEM-HEK293F, half-maximum binding
Under this convention, t denotes EC50 strictly below 0.4 µg/mL and f denotes EC50 at or above 0.4 µg/mL.

Past entries and their recorded results:
# Binder, Assigned category
rows = [
    ("chimeric mouse/human IgG4/kappa anti-human HVEM antibody no. 11H7 (antibody, V domains shown, 40/41 within the entry; Stabilized human IgG4 (S239P) already in the entry; also called chimeric 11H7) VH: QVQLKQSGPGLVQPSQSLSITCTVSGFSLTIYGVHWVRQSPGKGLEWLGVIWSGGSTDYNAAFISRLSISKDNSKSQVFFKMNSLQANDTAIYYCARRDYGSRSFYYAMDYWGQGTSVTVSS VL: EIVLTQSPALMAASPGEKVTITCSVSSSISSSNLHWYQQKSETSPKPWIYGTSNLASGVPVRFSGSGSGTSYSLTISSMEAEDAATYYCQQWSSYPLTFGGGTKLEIKR", "f"),
    ("mouse anti-human HVEM antibody no. 11H7 (antibody, mouse IgG1, V domains shown, mouse IgG1/kappa; also called 11H7 (mouse)) VH: QVQLKQSGPGLVQPSQSLSITCTVSGFSLTIYGVHWVRQSPGKGLEWLGVIWSGGSTDYNAAFISRLSISKDNSKSQVFFKMNSLQANDTAIYYCARRDYGSRSFYYAMDYWGQGTSVTVSS VL: EIVLTQSPALMAASPGEKVTITCSVSSSISSSNLHWYQQKSETSPKPWIYGTSNLASGVPVRFSGSGSGTSYSLTISSMEAEDAATYYCQQWSSYPLTFGGGTKLEIK", "f"),
    ("chimeric mouse/human IgG4/kappa anti-human HVEM antibody no. 36H12 (antibody, V domains shown, 16/17 within the entry; Stabilized human IgG4 (S239P) already in the entry; also called chimeric 36H12) VH: EVQLQQSGAGLVKPGASVKLSCTASGFNIKDTYMHWVRQRPEQGLEWIGRIDPATANTKYDPKFQGKATLTTDTSSNTAYLQLSSLTSEDTAVYYCVTYGYDVSWFAYWGLGALVTVSA VL: DVLMTQTPLSLPVSLGDQASISCRSSQSIVHSNGITYLEWYLQKPGQSPKLLIYKVSNRFSGVPDRFSGSGSGTDFTLKISRVEAEDLGVYYCFQGSHVPLTFGAGTKLELKR", "f"),
    ("mouse anti-human HVEM antibody no. 49G4 (antibody, mouse IgG1, V domains shown, mouse IgG1/kappa; also called 49G4 (mouse)) VH: EVQLQQSGAELVKPGASVKLSCRASGFNIKDTYMHWVKQRPEQGLEWIGRIDPARGNTKYDPKFQGKATITADTSSNTAYLQLSSLTSEDTAVYYCASAMDYWGQGTSVTVSS VL: DVLMTQTPLSLPVSLGDQASISCRSSQSIVHSNGNTYLEWFLQKPGQSPKLLIYKVSNRFSGVPDRFSGSGSGTDFTLKISRVEAEDLGVYYCFQGSHVPLTFGAGTKLELK", "t"),
]

Could you now consider this next binder?
Hi there! Is EC50 for chimeric mouse/human IgG4/kappa anti-human HVEM antibody no. 49G4 (antibody, V domains shown, 48/49 within the entry; Stabilized human IgG4 (S239P) already in the entry; also called chimeric 49G4) VH: EVQLQQSGAELVKPGASVKLSCRASGFNIKDTYMHWVKQRPEQGLEWIGRIDPARGNTKYDPKFQGKATITADTSSNTAYLQLSSLTSEDTAVYYCASAMDYWGQGTSVTVSS VL: DVLMTQTPLSLPVSLGDQASISCRSSQSIVHSNGNTYLEWFLQKPGQSPKLLIYKVSNRFSGVPDRFSGSGSGTDFTLKISRVEAEDLGVYYCFQGSHVPLTFGAGTKLELKR below 0.4 µg/mL, do you know? t
